The reported measurements were obtained from paper PMC7826789.

Tested on: EPHA2
Settings: Compound Concentration (nM):1000;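 also: KINOMEscan scanMAX binding as percent activity remaining versus control; lower means stronger binding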
REPORTED_PROPERTY: Percent Control

Some solved cases for reference:
# COMPOUND, MEASURED_VALUE
rows = [
    ("CCc1ccc(Oc2nccc(-c3c(-c4ccc(F)cc4)ncn3C3CCNCC3)n2)cc1", "95%"),
    ("COc1cc2ncnc(Nc3ccc4c(cnn4Cc4ccccc4)c3)c2cc1OC.Cl [GW282449A]", "100%"),
    ("Cc1cc(O)cc(C)c1/C=C/c1cncc(C(N)=O)c1 [GW435821X]", "62%"),
    ("CCS(=O)(=O)c1ccc(OC)c(Nc2ncc(-c3cccc(F)c3)o2)c1 [GW621970X]", "100%"),
    ("CCn1c(-c2nonc2N)nc2c(C#CC(C)(C)O)nc(OCCNC)cc21.Cl", "100%"),
]

Hi, could you look up Percent Control for each item in my list?
1. CC1=C(C(=O)Nc2ccc3[nH]ncc3c2)C(c2ccc(Cl)c(Cl)c2)CC(=O)N1 (centres unmarked) [GSK299115A]
2. COc1cccc(-n2ncc3c(N/N=C/c4ccncc4)ncnc32)c1 [GW784752X]
3. COc1cc(N2CCN(C(C)C)CC2)ccc1Nc1nc(Nc2ccc(F)cc2C(=O)NC[C@@H](O)CO)c2cc[nH]c2n1 [GSK1392956A]

## Output
["98%", "100%", "94%"]

====

Test system: PIK4CB
Construct: gene PI4KB
Details: Compound Concentration (nM):1000
REPORTED_PROPERTY: Percent Control (%)
Give bare numbers, in %.

Some solved cases for reference:
# COMPOUND, MEASURED_VALUE
rows = [
    ("Cl.O=C(Nc1ccc(Oc2ccc3[nH]c(NC(=O)c4ccco4)nc3c2)cc1)Nc1cc(C(F)(F)F)ccc1F [GW683134A]", 100),
    ("COc1ccc2[nH]c3c4[nH]c5ccc(OC)cc5c4c4c(c3c2c1)C(=O)NC4=O [GW296115X]", 100),
    ("CC1=C(C(=O)Nc2ccc3[nH]ncc3c2)C(c2ccc(Cl)c(Cl)c2)CC(=O)N1 (stereo not shown) [GSK299115A]", 80),
    ("Cl.O=C(Nc1ccc(Oc2ccc3[nH]c(NC(=O)c4ccccc4)nc3c2)cc1)Nc1cc(C(F)(F)F)ccc1F [GW709042A]", 100),
    ("COc1ccc2c(-c3ccnc(Nc4cccc(OC(F)(F)F)c4)n3)cnn2n1 [GW810372X]", 72),
    ("CN1CCN(C(=O)c2ccc(NC(=O)Nc3ccc(N(C)c4ccnc(Nc5ccc(CS(C)(=O)=O)cc5)n4)cc3)cc2)CC1.Cl [GW830263A]", 97),
]

## Input If you can, please state the reported Percent Control value of COc1cc(N2CCN(C(C)C)CC2)ccc1Nc1nc(Nc2ccc(F)cc2C(=O)NC[C@@H](O)CO)c2cc[nH]c2n1 [GSK1392956A] .
## Output 100

====

Test system: PIK3CA(H1047L)
Settings: Compound Concentration (nM):1000
REPORTED_PROPERTY: Percent Control (%)
Numbers only, in %.

# COMPOUND, MEASURED_VALUE
data = [
    ("COC(=O)Nc1nc2ccc(Oc3ccc(NC(=O)Nc4cc(C(F)(F)F)ccc4F)cc3)cc2s1.Cl [GW693917A]", 91),
    ("COc1cccc(-n2ncc3c(N/N=C/c4ccncc4)ncnc32)c1 [GW784752X]", 100),
    ("NS(=O)(=O)c1ccc(N/N=C2\\C(=O)Nc3ccc(C(=O)NCc4ccncc4)cc32)cc1 [GW300657X]", 89),
    ("CC1=C(C(=O)Nc2ccc3[nH]ncc3c2)C(c2ccc(Cl)c(Cl)c2)CC(=O)N1 (centres unmarked) [GSK299115A]", 97),
    ("C/C(Nc1ccc(S(N)(=O)=O)cc1)=C1/C(=O)Nc2ccccc21 [GW335962X]", 100),
]

Hi, could you look up Percent Control for each item in my list?
1. NS(=O)(=O)c1ccc(N/N=C2\C(=O)Nc3ccc(-c4cnco4)cc32)cc1
2. CCS(=O)(=O)c1ccc(OC)c(Nc2ncc(-c3cccc(OC)c3)o2)c1 [GW580509X]
3. Cl.O=C(O[C@H]1CN[C@H](C#Cc2cc3ncnc(Nc4ccc5c(cnn5Cc5ccccc5)c4)c3s2)C1)N1CCOCC1 [GSK200398A]

## Output
1: 94; 2: 100; 3: 100

====

Tested on: MAP3K15
Conditions: Compound Concentration (nM):1000
REPORTED_PROPERTY: Percent Control (%)
One number for each entry, in %.

Some solved cases for reference:
# COMPOUND, READOUT_UNIT, MEASURED_VALUE
data = [
    ("Cl.O=S1CCN(Cc2ccc(-c3ccc4ncnc(Nc5ccc(OCc6ccccc6)c(F)c5)c4c3)o2)CC1 [GW576924A]", "%", 94),
    ("CN1CCN(C(=O)c2ccc(NC(=O)Nc3ccc(N(C)c4ccnc(Nc5ccc(CS(C)(=O)=O)cc5)n4)cc3)cc2)CC1.Cl [GW830263A]", "%", 86),
    ("O=C(Nc1n[nH]c2nc(-c3ccc(O)cc3)c(Br)cc12)C1CC1", "%", 94),
    ("Cc1cc(O)cc(C)c1/C=C/c1cncc(C(N)=O)c1 [GW435821X]", "%", 100),
    ("CC1=C(C(=O)Nc2ccc3[nH]ncc3c2)C(c2ccc(Cl)c(Cl)c2)CC(=O)N1 (centres unmarked) [GSK299115A]", "%", 84),
    ("NS(=O)(=O)c1ccc(N/N=C2\\C(=O)Nc3ccc(Cl)cc32)cc1 [GW280670X]", "%", 100),
    ("COc1cc2ncnc(Nc3ccc4c(cnn4Cc4ccccc4)c3)c2cc1OC.Cl [GW282449A]", "%", 98),
]

## Input If you can, please state the reported Percent Control value of COc1cc2ncn(-c3cc(O[C@H](C)c4ccccc4Cl)c(C(N)=O)s3)c2cc1OC [GSK237701A] .
## Output 100

====

Tested on: AKT1
Conditions: Compound Concentration (nM):1000
REPORTED_PROPERTY: Percent Control (%)
Give bare numbers, in %.

Some solved cases for reference:
# COMPOUND, READOUT_UNIT, Percent Control
data = [
    ("CN(C)CCNC(=O)Nc1ccc(N(C)c2ccnc(Nc3ccc(CS(C)(=O)=O)cc3)n2)cc1.Cl [GW830900A]", "%", 100),
    ("COc1cccc(-c2c[nH]c3c(N/N=C/c4ccncc4)ncnc23)c1 [GW814408X]", "%", 100),
    ("CN1CCN(C(=O)c2ccc(NC(=O)Nc3ccc(N(C)c4ccnc(Nc5ccc(CS(C)(=O)=O)cc5)n4)cc3)cc2)CC1.Cl [GW830263A]", "%", 100),
    ("O=C1Nc2ccc(C(=O)c3ccco3)cc2C1=Cc1cc(Cl)c(O)c(Cl)c1 [GW406108X]", "%", 100),
    ("Cl.O=C(Nc1ccc(Oc2ccc3[nH]c(NC(=O)c4ccco4)nc3c2)cc1)Nc1cc(C(F)(F)F)ccc1F [GW683134A]", "%", 100),
    ("COc1cc(C=NNc2ncnc3c2cnn3-c2ccccc2)ccc1O [GW513184X]", "%", 100),
]

Hi, could you look up Percent Control for each item in my list?
1. Nc1ncnc2occ(-c3ccc(NC(=O)Nc4cc(C(F)(F)F)ccc4F)cc3)c12 [GW770249X]
2. Cl.O=C(O[C@H]1CN[C@H](C#Cc2cc3ncnc(Nc4ccc5c(cnn5Cc5ccccc5)c4)c3s2)C1)N1CCOCC1 [GSK200398A]
3. NS(=O)(=O)c1ccc(N/N=C2\C(=O)Nc3ccc(Cl)cc32)cc1 [GW280670X]

## Output
[100, 92, 100]

Hi, could you look up Percent Control for each item in my list?
1. Cl.O=C(Nc1ccc(Oc2ccc3[nH]c(NC(=O)c4ccccc4)nc3c2)cc1)Nc1cc(C(F)(F)F)ccc1F [GW709042A]
2. Cc1cc(O)cc(C)c1/C=C/c1cncc(C(N)=O)c1 [GW435821X]
3. COc1cc2ncn(-c3cc(O[C@H](C)c4ccccc4Cl)c(C(N)=O)s3)c2cc1OC [GSK237701A]
4. Cl.c1ccc(Cc2nc3ccc(Nc4ncnc5ccccc45)cc3[nH]2)cc1 [GR269666A]
5. NS(=O)(=O)c1ccc(N/N=C2\C(=O)Nc3ccc(C(=O)NCc4ccncc4)cc32)cc1 [GW300657X]
6. CCn1c(-c2nonc2N)nc2c(C#CC(C)(C)O)nc(OCCNC)cc21.Cl [GSK949675]

## Output
1. 90
2. 96
3. 100
4. 93
5. 82
6. 3.7

Hi, could you look up Percent Control for each item in my list?
1. CCS(=O)(=O)c1ccc(OC)c(Nc2ncc(-c3cccc(OC)c3)o2)c1 [GW580509X]
2. NS(=O)(=O)c1ccc(Nc2ncc(-c3ccccc3)o2)cc1 [GW572399X]
3. COc1cc(C)c(N(C)C(=O)CN(C)C)cc1Nc1nc(Nc2cccc(F)c2C(N)=O)c2cc[nH]c2n1 [GSK2219385]

## Output
1. 100
2. 100
3. 98

Hi, could you look up Percent Control for each item in my list?
1. CC1=C(C(=O)Nc2ccc3[nH]ncc3c2)C(c2ccc3ccccc3c2)CC(=O)N1 (stereo not drawn) [GSK270822A]
2. CCS(=O)(=O)c1ccc(OC)c(Nc2ncc(-c3cccc(F)c3)o2)c1 [GW621970X]
3. COc1cc(N2CCN(C(C)C)CC2)ccc1Nc1nc(Nc2ccc(F)cc2C(=O)NC[C@@H](O)CO)c2cc[nH]c2n1 [GSK1392956A]

## Output
1: 17; 2: 100; 3: 83
